Biological target: HIV-1 reverse transcriptase (Human immunodeficiency virus type 1 group M subtype B, UniProt P04585)
Construct: equivalent to 2.85nM for an equimolar mixture of p66 and p51 polypeptides; host or cells: E. coli
Assay: Assay for reverse transcriptase activity (incorporation of radioactive dGMP from [3H]dGTP into Poly (rC). p(dG)12-18)
Format: biochemical, human immunodeficiency virus type 1 (HIV-1)
Settings: approximate, from plot of % inhibition against concentration of inhibitor; 1.02µM [3H]dGTP, 65 minutes at 37°C

Molecule	IC50
Nc1nc2c(ncn2CCC(CO)COP(=O)(O)OP(=O)(O)OP(=O)(O)O)c(=O)[nH]1 (racemic) [PCV-TP, Penciclovir triphosphate]	4300 nM
Nc1nc2c(ncn2[C@H]2CC[C@@H](COP(=O)(O)OP(=O)(O)OP(=O)(O)O)O2)c(=O)[nH]1 [ddGTP, 2',3'-dideoxyguanosine-5-triphosphate, reference compound]	25 nM
